molecular target: HLA-DR DRB1*0101 (human); assay: radiolabeled-peptide inhibition, purified HLA-DR
Please provide measured IC50 for the entries that follow.
Numbers only, in nM.

GHCWGPGPTQCVNCS [9019.0061] = 1910

Kindly consider the entry below.
Ask: Suppose we examine the binder PSGVKPDLSYMPIWK [9019.0065] ; what IC50 value has been reported?
Reply: 1030

Data provenance: patent US20100310640A1
